target: T1, recombinant human IL4Rα-his protein (in house made) (human, UniProt P24394 26-232, limits assumed); test: SPR (Biacore), antibody captured, IL4Rα-his flowed
T1 construct: also called Human IL4Ra-his
Reported property: End (RU)
Return type: number; implicit unit RU.

// below: answered binders
huC2C1A1A1-V16 (antibody, human IgG4 S228P, kappa, V domains shown, Humanized, human IgG4/kappa) VH: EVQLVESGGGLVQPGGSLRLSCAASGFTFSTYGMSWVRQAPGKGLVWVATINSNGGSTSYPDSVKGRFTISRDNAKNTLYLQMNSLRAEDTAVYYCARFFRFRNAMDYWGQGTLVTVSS VL: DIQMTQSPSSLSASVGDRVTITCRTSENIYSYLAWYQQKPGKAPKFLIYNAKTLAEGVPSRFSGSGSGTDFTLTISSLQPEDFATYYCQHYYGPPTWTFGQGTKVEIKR	47.1
huC2C1A1A1-V9 (antibody, human IgG4 S228P, kappa, V domains shown, Humanized, human IgG4/kappa) VH: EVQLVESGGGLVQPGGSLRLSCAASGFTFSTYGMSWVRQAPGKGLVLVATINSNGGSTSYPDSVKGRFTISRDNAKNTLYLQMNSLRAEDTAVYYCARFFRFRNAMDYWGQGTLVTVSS VL: DIQMTQSPSSLSASVGDRVTITCRTSENIYSYLAWYQQKPGKAPKLLIYNAKTLAEGVPSRFSGSGSGTDFTLTISSLQPEDFATYYCQHYYGPPTWTFGQGTKVEIKR	41.1
huC2C1A1A1-V13 (antibody, human IgG4 S228P, kappa, V domains shown, Humanized, human IgG4/kappa) VH: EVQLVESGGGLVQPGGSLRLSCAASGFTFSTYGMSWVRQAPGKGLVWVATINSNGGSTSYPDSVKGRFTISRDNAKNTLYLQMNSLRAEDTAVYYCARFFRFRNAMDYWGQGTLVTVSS VL: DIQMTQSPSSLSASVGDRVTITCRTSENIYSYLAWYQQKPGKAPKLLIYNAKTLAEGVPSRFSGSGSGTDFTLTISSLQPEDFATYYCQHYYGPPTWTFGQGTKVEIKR	36.7
huC2C1A1A1-V12 (antibody, human IgG4 S228P, kappa, V domains shown, Humanized, human IgG4/kappa) VH: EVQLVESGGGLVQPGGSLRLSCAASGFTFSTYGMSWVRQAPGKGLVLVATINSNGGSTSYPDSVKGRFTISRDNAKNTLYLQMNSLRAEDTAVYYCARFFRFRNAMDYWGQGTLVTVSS VL: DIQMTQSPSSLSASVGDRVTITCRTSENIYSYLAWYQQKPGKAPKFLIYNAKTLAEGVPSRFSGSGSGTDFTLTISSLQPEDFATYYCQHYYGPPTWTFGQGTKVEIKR	52.1

Now for another entry.
Give its End (RU) value. Item: huC2C1A1A1-V5 (antibody, human IgG4 S228P, kappa, V domains shown, Humanized, human IgG4/kappa) VH: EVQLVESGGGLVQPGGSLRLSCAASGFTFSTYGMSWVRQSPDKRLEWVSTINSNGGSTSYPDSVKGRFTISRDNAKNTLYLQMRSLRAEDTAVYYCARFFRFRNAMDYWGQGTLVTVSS VL: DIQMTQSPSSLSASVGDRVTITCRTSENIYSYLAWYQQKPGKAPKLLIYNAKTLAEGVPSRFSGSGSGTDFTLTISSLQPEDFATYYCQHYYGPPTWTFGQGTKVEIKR
64.3
